# ASSAY SYSTEM: MAP3K2 (Homo sapiens)
# Sequence (Q9Y2U5 whole entry): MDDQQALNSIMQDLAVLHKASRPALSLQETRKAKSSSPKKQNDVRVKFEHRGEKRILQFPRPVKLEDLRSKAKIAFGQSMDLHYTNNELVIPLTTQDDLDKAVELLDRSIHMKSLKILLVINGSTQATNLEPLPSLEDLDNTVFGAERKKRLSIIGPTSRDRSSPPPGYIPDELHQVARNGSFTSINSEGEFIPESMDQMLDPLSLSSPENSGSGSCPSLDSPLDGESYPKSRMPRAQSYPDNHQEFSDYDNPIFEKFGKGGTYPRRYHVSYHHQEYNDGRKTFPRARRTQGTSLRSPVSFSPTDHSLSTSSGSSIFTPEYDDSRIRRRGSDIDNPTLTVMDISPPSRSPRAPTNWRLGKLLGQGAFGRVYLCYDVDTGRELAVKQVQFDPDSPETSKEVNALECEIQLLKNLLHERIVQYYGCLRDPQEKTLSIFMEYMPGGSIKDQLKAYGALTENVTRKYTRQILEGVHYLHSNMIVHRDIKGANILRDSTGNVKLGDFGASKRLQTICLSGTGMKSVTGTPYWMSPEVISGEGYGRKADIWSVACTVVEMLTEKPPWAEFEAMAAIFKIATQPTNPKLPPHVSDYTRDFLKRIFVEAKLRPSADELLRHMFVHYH
# PROCEDURE SUMMARY: biochemical
# Set-up: species or system HEK293/K-562/placenta mixed human extract; Kinobeads chemoproteomic competition binding, quantified by TMT LC-MS/MS, dose response up to 20 uM

| MOLECULE SMILES | IC50 |
| --- | --- |
| COc1ccccc1-c1n[nH]c2nc(N[C@H]3CC[C@H](NS(=O)(=O)CCC(F)(F)F)CC3)nc(OC)c12 | ≥ 20 µM |

====

# ASSAY SYSTEM: UniProtKB P08631
# Sequence (P08631 whole entry): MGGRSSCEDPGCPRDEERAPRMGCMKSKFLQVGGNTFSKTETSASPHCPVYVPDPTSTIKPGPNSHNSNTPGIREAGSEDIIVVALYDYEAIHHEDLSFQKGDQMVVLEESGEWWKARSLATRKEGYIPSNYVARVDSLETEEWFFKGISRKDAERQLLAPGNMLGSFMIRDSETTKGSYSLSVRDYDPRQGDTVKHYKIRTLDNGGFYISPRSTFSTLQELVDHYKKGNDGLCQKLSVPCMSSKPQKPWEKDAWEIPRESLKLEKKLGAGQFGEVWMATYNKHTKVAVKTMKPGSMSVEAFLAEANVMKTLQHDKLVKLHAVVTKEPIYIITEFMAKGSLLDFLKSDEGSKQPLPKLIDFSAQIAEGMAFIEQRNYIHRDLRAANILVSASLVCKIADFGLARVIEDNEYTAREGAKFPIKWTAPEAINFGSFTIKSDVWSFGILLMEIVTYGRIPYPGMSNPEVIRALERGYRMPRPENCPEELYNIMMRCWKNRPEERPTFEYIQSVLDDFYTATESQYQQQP
# PROCEDURE SUMMARY: biochemical
# Set-up: species or system HEK293/K-562/placenta mixed human extract; Kinobeads chemoproteomic competition binding, quantified by TMT LC-MS/MS, dose response up to 20 uM

| MOLECULE | IC50 |
| --- | --- |
| COc1nc(N[C@H]2CC[C@H](NS(=O)(=O)CC(C)C)CC2)nc2[nH]nc(N3CCOC[C@H]3C)c12 [compound 39] | ≥ 20 µM |

====

# ASSAY SYSTEM: ITK (Homo sapiens, UniProt Q08881)
# Sequence (Q08881 whole entry): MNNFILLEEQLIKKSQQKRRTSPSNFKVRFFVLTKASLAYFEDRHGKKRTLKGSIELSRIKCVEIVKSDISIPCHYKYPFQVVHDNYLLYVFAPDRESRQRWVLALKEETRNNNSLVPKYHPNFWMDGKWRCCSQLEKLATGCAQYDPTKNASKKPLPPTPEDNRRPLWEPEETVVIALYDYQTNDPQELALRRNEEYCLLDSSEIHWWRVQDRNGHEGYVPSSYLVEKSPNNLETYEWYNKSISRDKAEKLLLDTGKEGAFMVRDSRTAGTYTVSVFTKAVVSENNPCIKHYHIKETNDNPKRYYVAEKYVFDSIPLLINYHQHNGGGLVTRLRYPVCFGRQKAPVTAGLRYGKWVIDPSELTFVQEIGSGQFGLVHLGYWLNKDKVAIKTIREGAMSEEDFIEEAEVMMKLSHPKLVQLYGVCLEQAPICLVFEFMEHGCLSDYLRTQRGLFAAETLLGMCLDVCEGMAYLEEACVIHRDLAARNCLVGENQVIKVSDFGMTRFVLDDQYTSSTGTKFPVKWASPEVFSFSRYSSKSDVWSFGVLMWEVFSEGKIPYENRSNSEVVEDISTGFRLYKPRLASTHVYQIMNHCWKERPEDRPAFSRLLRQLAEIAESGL
# PROCEDURE SUMMARY: biochemical
# Design: species or system HEK293/K-562/placenta mixed human extract; Kinobeads chemoproteomic competition binding, quantified by TMT LC-MS/MS, dose response up to 20 uM
RECORDED METRIC: IC50

| MOLECULE SMILES | TEST VALUE |
| --- | --- |
| COc1ccccc1-c1n[nH]c2nc(N[C@H]3CC[C@H](NS(=O)(=O)CCC(F)(F)F)CC3)nc(OC)c12 | ≥ 20 µM |

====

# ASSAY SYSTEM: hERG (Homo sapiens)
# Construct: in vitro hERG assay, standard protocol
# Sequence (Q12809 whole entry): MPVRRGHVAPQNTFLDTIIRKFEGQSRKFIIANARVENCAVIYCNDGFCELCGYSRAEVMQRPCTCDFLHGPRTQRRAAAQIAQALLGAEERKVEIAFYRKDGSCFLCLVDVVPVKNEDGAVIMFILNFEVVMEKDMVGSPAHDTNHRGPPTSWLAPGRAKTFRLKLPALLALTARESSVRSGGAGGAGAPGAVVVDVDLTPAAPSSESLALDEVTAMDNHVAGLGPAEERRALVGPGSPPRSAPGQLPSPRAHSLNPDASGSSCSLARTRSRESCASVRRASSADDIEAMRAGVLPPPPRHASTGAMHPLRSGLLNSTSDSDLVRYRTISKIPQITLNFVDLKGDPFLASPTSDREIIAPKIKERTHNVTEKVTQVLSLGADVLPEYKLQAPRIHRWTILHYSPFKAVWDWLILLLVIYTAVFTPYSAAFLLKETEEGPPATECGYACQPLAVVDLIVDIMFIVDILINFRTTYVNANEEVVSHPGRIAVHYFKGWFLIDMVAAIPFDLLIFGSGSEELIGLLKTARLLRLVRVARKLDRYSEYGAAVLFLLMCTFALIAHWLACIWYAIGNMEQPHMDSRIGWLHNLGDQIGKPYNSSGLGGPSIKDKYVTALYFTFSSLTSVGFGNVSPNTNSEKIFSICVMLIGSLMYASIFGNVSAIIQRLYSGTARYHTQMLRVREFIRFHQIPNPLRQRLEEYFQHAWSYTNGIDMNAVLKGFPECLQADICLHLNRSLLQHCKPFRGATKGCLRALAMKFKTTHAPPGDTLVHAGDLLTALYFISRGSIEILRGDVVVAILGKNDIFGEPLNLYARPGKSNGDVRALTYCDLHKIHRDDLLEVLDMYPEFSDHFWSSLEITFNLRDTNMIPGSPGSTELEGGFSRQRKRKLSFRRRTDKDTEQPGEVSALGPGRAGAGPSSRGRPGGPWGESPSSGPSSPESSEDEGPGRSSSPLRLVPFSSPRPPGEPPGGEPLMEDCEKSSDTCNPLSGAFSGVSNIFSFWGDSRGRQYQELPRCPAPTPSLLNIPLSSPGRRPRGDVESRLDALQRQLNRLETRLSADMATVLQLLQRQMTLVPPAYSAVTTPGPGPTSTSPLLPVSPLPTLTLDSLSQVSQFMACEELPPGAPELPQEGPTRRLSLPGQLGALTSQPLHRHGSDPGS
# PROCEDURE SUMMARY: in vitro hERG assay, standard protocol
# STUDY CONDITIONS: read-out: 1
RECORDED METRIC: IC50

| MOLECULE SMILES | TEST VALUE |
| --- | --- |
| COc1nc(N[C@H]2CC[C@H](NS(=O)(=O)CC(C)C)CC2)nc2[nH]nc(N3CCOC[C@H]3C)c12 | > 30 µM |

====

# ASSAY SYSTEM: FYN (Homo sapiens, UniProt P06241)
# Sequence (P06241 whole entry): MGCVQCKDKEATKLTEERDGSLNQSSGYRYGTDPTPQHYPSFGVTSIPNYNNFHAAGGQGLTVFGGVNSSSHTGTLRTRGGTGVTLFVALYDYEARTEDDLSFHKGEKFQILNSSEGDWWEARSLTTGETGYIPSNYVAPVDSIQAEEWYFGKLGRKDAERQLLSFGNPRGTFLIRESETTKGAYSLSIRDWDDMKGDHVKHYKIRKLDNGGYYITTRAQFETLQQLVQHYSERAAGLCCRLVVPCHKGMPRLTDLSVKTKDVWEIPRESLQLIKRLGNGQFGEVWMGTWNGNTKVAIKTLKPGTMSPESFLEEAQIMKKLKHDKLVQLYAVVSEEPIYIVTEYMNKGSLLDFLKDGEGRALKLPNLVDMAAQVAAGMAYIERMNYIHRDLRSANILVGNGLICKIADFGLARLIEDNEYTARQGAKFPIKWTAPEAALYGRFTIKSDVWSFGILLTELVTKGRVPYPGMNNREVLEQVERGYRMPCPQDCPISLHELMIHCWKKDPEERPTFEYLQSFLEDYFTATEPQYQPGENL
# PROCEDURE SUMMARY: biochemical
# Design: species or system HEK293/K-562/placenta mixed human extract; Kinobeads chemoproteomic competition binding, quantified by TMT LC-MS/MS, dose response up to 20 uM

| MOLECULE SMILES | ASSAY SYSTEM | IC50 |
| --- | --- | --- |
| COc1nc(N[C@H]2CC[C@H](NS(=O)(=O)CC(C)C)CC2)nc2[nH]nc(N3CCOC[C@H]3C)c12 | FYN (Homo sapiens, UniProt P06241) | ≥ 20 µM |

====

# ASSAY SYSTEM: UniProt:Q8TD19
# Sequence (Q8TD19 whole entry): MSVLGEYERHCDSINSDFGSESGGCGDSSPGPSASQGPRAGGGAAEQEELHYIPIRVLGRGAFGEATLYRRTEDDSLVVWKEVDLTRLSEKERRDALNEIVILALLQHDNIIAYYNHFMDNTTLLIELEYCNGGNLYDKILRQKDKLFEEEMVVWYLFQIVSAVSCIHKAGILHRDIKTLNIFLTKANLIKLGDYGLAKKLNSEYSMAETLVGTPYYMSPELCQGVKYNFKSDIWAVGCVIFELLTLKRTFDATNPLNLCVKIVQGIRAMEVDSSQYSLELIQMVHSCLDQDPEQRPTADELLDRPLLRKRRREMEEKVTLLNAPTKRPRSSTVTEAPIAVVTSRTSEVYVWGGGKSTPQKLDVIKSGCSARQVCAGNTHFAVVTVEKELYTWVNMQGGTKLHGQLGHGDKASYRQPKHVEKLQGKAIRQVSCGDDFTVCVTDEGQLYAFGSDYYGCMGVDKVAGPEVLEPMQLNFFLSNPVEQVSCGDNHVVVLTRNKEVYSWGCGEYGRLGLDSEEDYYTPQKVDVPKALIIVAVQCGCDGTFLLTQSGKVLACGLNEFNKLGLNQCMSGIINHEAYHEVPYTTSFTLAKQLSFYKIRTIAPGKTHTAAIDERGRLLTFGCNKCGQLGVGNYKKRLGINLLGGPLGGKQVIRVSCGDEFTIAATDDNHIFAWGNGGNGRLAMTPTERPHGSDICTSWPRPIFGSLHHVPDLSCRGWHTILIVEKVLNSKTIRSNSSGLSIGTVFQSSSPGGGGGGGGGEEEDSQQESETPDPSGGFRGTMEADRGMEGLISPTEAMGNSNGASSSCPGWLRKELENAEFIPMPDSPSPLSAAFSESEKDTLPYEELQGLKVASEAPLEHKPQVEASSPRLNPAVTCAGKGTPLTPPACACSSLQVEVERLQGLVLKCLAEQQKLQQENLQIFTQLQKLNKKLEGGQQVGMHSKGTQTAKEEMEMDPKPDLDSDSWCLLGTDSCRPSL
# PROCEDURE SUMMARY: biochemical
# Set-up: species or system HEK293/K-562/placenta mixed human extract; Kinobeads chemoproteomic competition binding, quantified by TMT LC-MS/MS, dose response up to 20 uM
RECORDED METRIC: IC50

| COMPOUND | TEST VALUE |
| --- | --- |
| COc1ccccc1-c1n[nH]c2nc(N[C@H]3CC[C@H](NS(=O)(=O)CCC(F)(F)F)CC3)nc(OC)c12 [compound 31] | ≥ 20 µM |
